Just for reference, patent US9717243B2 is where these values come from.

# test summary: LogP by HPLC on reversed phase columns (EEC directive 79/831 Annex V.A8)
# Assay type: physicochemical
measure name: Log P[a]
// no unit string in output, number only

Example entries begin here.
>>> reported_measurement("COC(=O)C1(c2nc(C3=NOC(c4c(F)cccc4F)C3)cs2)CCN(C(=O)Cn2nc(C(F)F)cc2C(F)F)CC1 (stereo not shown) [Example I-1]")
3.44
>>> reported_measurement("C=CCOC(=O)C1(C#N)CCN(C(=O)Cn2nc(C(F)F)cc2C(F)F)CC1 [IV-5]")
2.71
>>> reported_measurement("C#CCOc1ccccc1C1CC(c2csc(C3(C(=O)OC)CCN(C(=O)Cn4nc(C(F)F)cc4C)CC3)n2)=NO1 (stereo not shown) [Example I-65]")
3.33
>>> reported_measurement("COC(=O)C1(C#N)CCN(C(=O)Nc2cn(C(F)F)nc2C)CC1 [IV-18]")
1.51
>>> reported_measurement("C#CCOc1ccccc1C1CC(c2csc(C3(C(=O)OC4CCOC4)CCN(C(=O)Cn4nc(C(F)F)cc4C(F)F)CC3)n2)=NO1 (stereo not shown) [Example I-58]")
3.55
>>> reported_measurement("CC(C)(C)OC(=O)C1(C#N)CCN(C(=O)Cc2ccc(Cl)cc2)CC1 [IV-24]")
3.37

Here is the next item to consider.
Q: Can you share its Log P[a]? I mean this molecule: C#CCOc1ccc(F)c(F)c1C1CC(c2csc(C3(C(=O)OC)CCN(C(=O)Cn4nc(C(F)(F)F)cc4C)CC3)n2)=NO1 (stereo not shown) [Example I-73]
Ans: 3.71

* * *

# test summary: LogP by HPLC on reversed phase columns (EEC directive 79/831 Annex V.A8)
# Type: physicochemical
Values of Log P[a] greater than or equal to 3 map to true (1); values below map to false (0).

>>> group("COC(=O)C1(C#N)CCN(C(=O)Nc2cc(C)ccc2C)CC1")
"false (0)"

Q: Hi team, for C#CCOC(=O)C1(C(N)=S)CCN(C(=O)Cn2nc(C(F)F)cc2C(F)F)CC1 , is the recorded Log P[a] at or above 3?
Ans: false (0)

Q: Check if Log P[a] >= 3 (inclusive). Item: CC(C)OC(=O)C1(c2nc(C3=NOC(c4c(Cl)cccc4OS(C)(=O)=O)C3)cs2)CCN(C(=O)Cn2nc(C(F)F)cc2C(F)F)CC1 (stereo not drawn)
Ans: true (1)

Q: Entry C#CCOc1ccccc1C1CC(c2csc(C3(C(=O)OC)CCN(C(=O)Cn4nc(C(F)(F)F)cc4C)CC3)n2)=NO1 (stereo not drawn) : is its Log P[a] no less than 3?
Ans: true (1)

Q: Item C#CCOc1ccc(F)c(F)c1C1CC(c2csc(C3(C(=O)OCc4ccccc4)CCN(C(=O)Cn4nc(C(F)F)cc4C(F)F)CC3)n2)=NO1 (stereo not drawn) with Log P[a] of 3 or above?
Ans: true (1)

Q: Check the entry CC(C)OC(=O)C1(C#N)CCN(C(=O)Cn2nc(C(F)F)cc2C(F)F)CC1 : does Log P[a] equal or exceed 3?
Ans: false (0)

Q: Check if Log P[a] >= 3 (inclusive). Item: CC(C)(C)OC(=O)C1(C#N)CCN(C(=O)Nc2ccccc2)CC1
Ans: false (0)

Q: Is reported Log P[a] greater than or equal to 3 here: COC(=O)C1(c2nc(C3=NOC(c4ccccc4OS(C)(=O)=O)C3)cs2)CCN(C(=O)Nc2cc(C(F)F)ccc2C(F)F)CC1 (stereo not drawn)
Ans: true (1)

Q: Please check the record COC(=O)C1(c2nc(C3=NOC(c4c(Cl)cccc4OS(C)(=O)=O)C3)cs2)CCN(C(=O)Nc2cn(C(F)F)nc2C)CC1 (stereo not drawn) and state if its Log P[a] is at or above 3.
Ans: false (0)

Q: API: above_or_equal(metric=Log P[a], cutoff=3) for item N#Cc1cccc(NC(=O)N2CCC(C#N)(C(=O)O)CC2)c1
Ans: false (0)

Q: Entry CSCCOC(=O)C1(C(N)=S)CCN(C(=O)Cn2nc(C(F)F)cc2C(F)F)CC1 : is its Log P[a] no less than 3?
Ans: false (0)
